Field: pIC50. Provide a value for each of the molecules that follow.
# assayed_target: BACE1 (Homo sapiens, UniProt P56817)
# Sequence (P56817 46-501, species assumed): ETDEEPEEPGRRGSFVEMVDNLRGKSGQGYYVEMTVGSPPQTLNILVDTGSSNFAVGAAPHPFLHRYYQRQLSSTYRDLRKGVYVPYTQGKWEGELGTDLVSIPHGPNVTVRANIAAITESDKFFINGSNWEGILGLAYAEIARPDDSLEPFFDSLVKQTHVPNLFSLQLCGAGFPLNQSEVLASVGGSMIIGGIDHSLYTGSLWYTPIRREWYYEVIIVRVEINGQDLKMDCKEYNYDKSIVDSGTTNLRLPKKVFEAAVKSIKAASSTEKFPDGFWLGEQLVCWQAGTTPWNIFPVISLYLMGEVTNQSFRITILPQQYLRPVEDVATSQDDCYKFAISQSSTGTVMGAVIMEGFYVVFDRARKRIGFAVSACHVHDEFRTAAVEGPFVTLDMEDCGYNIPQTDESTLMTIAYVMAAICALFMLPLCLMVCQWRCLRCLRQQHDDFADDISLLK
# assay_details: In Vitro Enzymatic BACE FRET (Fluorescence Resonance Energy Transfer) Assay
# Format: biochemical
# test_conditions: read-out: BACE1 FRET assay
pIC50: −log10 of the molar value.

Prompt: For the molecule shown here, NC1=N[C@@]2(CO1)c1cc(-c3cc(F)ccc3F)ccc1Oc1ncc(N3C[C@@H]4C[C@H]3CO4)cc12 [compound 453] , give the reported pIC50.
Completion: > 7.00

Prompt: For the molecule shown here, CC(C)(C)CCOc1nccc2c1[C@@]1(COC(N)=N1)c1cc(-c3cccnc3)ccc1O2 [compound 931] , give the reported pIC50.
Completion: 5.30 to 6.00

Prompt: For the molecule shown here, NC1=N[C@]2(CO1)c1cc(/C=C/C(=O)O)ccc1Oc1ccc(-c3cccnc3)cc12 [compound 949] , give the reported pIC50.
Completion: > 7.00

Prompt: For the molecule shown here, CC1(COc2ccc3c(c2)[C@@]2(COC(N)=N2)c2cc(C#CC4CC4)cnc2O3)COC1 [compound 967] , give the reported pIC50.
Completion: > 7.00

Prompt: For the molecule shown here, CC(C)(C)COc1ccc2c(c1)[C@@]1(COC(N)=N1)c1cc(-c3ccc(C#N)nc3)ccc1O2 [compound 782] , give the reported pIC50.
Completion: > 7.00

Prompt: For the molecule shown here, NC1=N[C@]2(CO1)c1cc(C#CC3(O)CCC3)ccc1Oc1ccc(-c3cccnc3)cc12 [compound 942] , give the reported pIC50.
Completion: > 7.00

Prompt: For the molecule shown here, CCOC(=O)c1ccc(-c2ccc3c(c2)[C@]2(COC(N)=N2)c2cc(-c4cccnc4)ccc2O3)o1 [compound 725] , give the reported pIC50.
Completion: > 7.00

Prompt: For the molecule shown here, NC1=N[C@]2(CO1)c1cc(-c3ccc(F)nc3)ccc1Oc1ncc(C3=CCOCC3)cc12 [compound 716] , give the reported pIC50.
Completion: 5.30 to 6.00

Prompt: For the molecule shown here, CC(C)(C)COc1cnc2c(c1)[C@]1(COC(N)=N1)c1cc(-c3ccccc3)ccc1O2 [compound 469] , give the reported pIC50.
Completion: > 7.00

Prompt: For the molecule shown here, CC(C)(C)COc1ccc2c(n1)[C@]1(COC(N)=N1)c1cc(Br)ccc1O2 [compound 735] , give the reported pIC50.
Completion: 5.30 to 6.00

Prompt: For the molecule shown here, CC(C)(C)COc1ccc2c(n1)[C@@]1(COC(N)=N1)c1cc(-c3cncnc3)ccc1O2 [compound 732] , give the reported pIC50.
Completion: 5.30 to 6.00

Prompt: For the molecule shown here, COC(=O)/C=C/c1ccc2c(c1)[C@@]1(COC(N)=N1)c1cc(-c3cncnc3)ccc1O2 [compound 946] , give the reported pIC50.
Completion: 6.00 to 7.00

Prompt: For the molecule shown here, NC1=N[C@]2(CO1)c1cc(Br)ccc1Oc1ccc(-c3cncnc3)cc12 [compound 686] , give the reported pIC50.
Completion: 6.00 to 7.00

Prompt: For the molecule shown here, CCCOc1cc2c(cc1F)Oc1ccc(-c3cncnc3)cc1[C@@]21COC(N)=N1 [compound 940] , give the reported pIC50.
Completion: > 7.00

Prompt: For the molecule shown here, COC(=O)CN1CCN(c2cc3c(cn2)Oc2ccc(-c4cccnc4)cc2[C@@]32COC(N)=N2)CC1 [compound 438] , give the reported pIC50.
Completion: > 7.00

Prompt: For the molecule shown here, NC1=N[C@@]2(CO1)c1cc(-c3cncnc3)ccc1Oc1cnc(Cl)cc12 [compound 500] , give the reported pIC50.
Completion: 6.00 to 7.00

Prompt: For the molecule shown here, NC1=N[C@]2(CO1)c1cc(OC[C@@H](O)C(F)(F)F)ccc1Oc1ccc(-c3cccnc3)cc12 [compound 925] , give the reported pIC50.
Completion: > 7.00

Prompt: For the molecule shown here, CC(C)(C)COc1cnc2c(c1)[C@]1(COC(N)=N1)c1cc(-c3ccc(F)nc3)ccc1O2 [compound 470] , give the reported pIC50.
Completion: > 7.00

Prompt: For the molecule shown here, CC(C)(C)COc1ccc2c(c1)C1(COC(N)=N1)c1cc(NC(=O)c3ccc(Cl)cn3)ccc1O2 (stereo not shown) [compound 522] , give the reported pIC50.
Completion: > 7.00

Prompt: For the molecule shown here, CC(C)(C)C#Cc1ccc2c(n1)[C@@]1(COC(N)=N1)c1cc(-c3cncnc3)ccc1O2 [compound 528] , give the reported pIC50.
Completion: > 7.00

Prompt: For the molecule shown here, CC(C)(C)COc1ccc2c(c1)[C@]1(COC(N)=N1)c1cc(C3CC3(C)C)ccc1O2 (stereo partly shown) [compound 754] , give the reported pIC50.
Completion: > 7.00

Prompt: For the molecule shown here, CC(C)(C)CC(=O)c1ccc2c(c1)[C@@]1(CSC(N)=N1)c1cc(-c3cncnc3)ccc1O2 [compound 762] , give the reported pIC50.
Completion: 6.00 to 7.00

Prompt: For the molecule shown here, NC1=N[C@]2(CO1)c1cc(-c3cccnc3)ccc1Oc1cnc(Cl)cc12 [compound 955] , give the reported pIC50.
Completion: 5.30 to 6.00

Prompt: For the molecule shown here, CCOc1ccc(-c2cnc3c(c2)[C@]2(COC(N)=N2)c2cc(OC)ccc2O3)cn1 [compound 667] , give the reported pIC50.
Completion: 6.00 to 7.00

Prompt: For the molecule shown here, NC1=N[C@]2(CO1)c1cc(CC(=O)O)ccc1Oc1ccc(-c3cncnc3)cc12 [compound 751] , give the reported pIC50.
Completion: 6.00 to 7.00

Prompt: For the molecule shown here, CC(C)(C)COc1ccc2c(c1)[C@@]1(COC(N)=N1)c1cc(-c3cncs3)ccc1O2 [compound 781] , give the reported pIC50.
Completion: > 7.00

Prompt: For the molecule shown here, CC1(COc2ccc3c(c2)[C@@]2(COC(N)=N2)c2cc(-c4ccc(F)cc4)cnc2O3)COC1 [compound 775] , give the reported pIC50.
Completion: > 7.00

Prompt: For the molecule shown here, CNCc1ccc(-c2ccc3c(c2)[C@]2(COC(N)=N2)c2cc(OCC(C)(C)C)ccc2O3)cc1 [compound 784] , give the reported pIC50.
Completion: 6.00 to 7.00

Prompt: For the molecule shown here, CC(C)(C)COc1ccc2c(c1)[C@]1(COC(N)=N1)c1cc(-c3ncc[nH]3)ccc1O2 [compound 979] , give the reported pIC50.
Completion: 6.00 to 7.00

Prompt: For the molecule shown here, CC(C)(C)COc1ccc2c(n1)[C@]1(COC(N)=N1)c1cc(-c3cncnc3)ccc1O2 [compound 733] , give the reported pIC50.
Completion: > 7.00

Prompt: For the molecule shown here, CC(C)(O)COc1ccc2c(c1)[C@]1(COC(N)=N1)c1cc(C#CC3CC3)ccc1O2 [compound 937] , give the reported pIC50.
Completion: > 7.00
